# System: SK-MEL-5 melanoma
# measurement_description: NCI-60 one-dose screen, 48 h
# applied_conditions: 10 µM unless noted
Compounds without any hit were thinned out: in the full panel of roughly 83,000, 20% have a hit. Activity calls are given as the source filed them. Rule for the calls: active = growth percent below 10; inactive = the rest.
Hi! Could you answer with just one of these? active, inactive

I'd appreciate the recorded outcome for CO[C@H](C(=O)[C@@H](O)[C@@H](C)O)[C@@H]1Cc2cc3cc(O[C@H]4C[C@@H](O[C@H]5C[C@@H](O)[C@H](O)C(C)O5)[C@H](O)C(C)(O)O4)cc(O)c3c(O)c2C(=O)[C@H]1O[C@H]1C[C@@H](O[C@H]2C[C@@H](O[C@H]3C[C@@H](OC)[C@H](O)C(C)O3)[C@@H](O)C(C)O2)[C@H](O)C(C)O1 (stereo partly specified) from this test. active

Called result for "CCOC(=O)C1=C(C)/C(=C\c2[nH]c(C)c(C(=O)OCC)c2C)N=C1C" inactive

Could you kindly confirm the outcome this assay logged for "CCOC(=O)C(=CNc1cnc(Nc2ccc(N3CCOCC3)cc2)nc1Oc1ccc(OC)cc1)C(=O)OCC" ? inactive

Dear colleague, could you share the recorded outcome for "CS(=O)(=O)c1nnc(-c2ccccc2)s1" when you have a moment? inactive

Test call for this compound, please: "CCCCNc1nnc2n(Cc3ccccc3)c(=O)c3c4c(sc3n12)CCCC4" inactive

// param item: "CN(CCCNC(=O)CCOCCOCCOCCNC(=O)Cc1ccc2ccc3cccc4ccc1c2c34)CCCNc1cc(-c2ccc3ccccc3c2)nc2ccccc12" ; yields the recorded call active

Record lookup: outcome of this test for "Cn1cc(-c2csc(-c3c[nH]c4ccc(F)cc34)n2)c2ccnc(Cl)c21" ? inactive

What is the recorded call for this compound in the test? COC(=O)C(Cc1ccccc1)NC(=O)c1ccc(NC(=O)c2[nH]c(C)c(Cl)c2Cl)c(OC(C)C)c1 (stereo unspecified) inactive

I'd appreciate the recorded outcome for "CCCCNc1cc(-c2cn[nH]c2-c2cc(C)cc(OC)c2)nc(-c2cccnc2)n1" from this test. inactive

Record lookup: outcome of this test for "CNC(=O)c1cc(Oc2ccc3c(c2)sc2nc(-c4ccc(OC)cc4)cn23)ccn1" ? inactive

Called result for CC(C)N1C(=O)/C(=c2\sc3n(c2=O)C2C(NN=3)N(C)C(=O)N2C)c2ccccc21 (stereo unspecified) inactive
